- tested_target: UniProt:P31422
- Sequence (P31422 whole entry): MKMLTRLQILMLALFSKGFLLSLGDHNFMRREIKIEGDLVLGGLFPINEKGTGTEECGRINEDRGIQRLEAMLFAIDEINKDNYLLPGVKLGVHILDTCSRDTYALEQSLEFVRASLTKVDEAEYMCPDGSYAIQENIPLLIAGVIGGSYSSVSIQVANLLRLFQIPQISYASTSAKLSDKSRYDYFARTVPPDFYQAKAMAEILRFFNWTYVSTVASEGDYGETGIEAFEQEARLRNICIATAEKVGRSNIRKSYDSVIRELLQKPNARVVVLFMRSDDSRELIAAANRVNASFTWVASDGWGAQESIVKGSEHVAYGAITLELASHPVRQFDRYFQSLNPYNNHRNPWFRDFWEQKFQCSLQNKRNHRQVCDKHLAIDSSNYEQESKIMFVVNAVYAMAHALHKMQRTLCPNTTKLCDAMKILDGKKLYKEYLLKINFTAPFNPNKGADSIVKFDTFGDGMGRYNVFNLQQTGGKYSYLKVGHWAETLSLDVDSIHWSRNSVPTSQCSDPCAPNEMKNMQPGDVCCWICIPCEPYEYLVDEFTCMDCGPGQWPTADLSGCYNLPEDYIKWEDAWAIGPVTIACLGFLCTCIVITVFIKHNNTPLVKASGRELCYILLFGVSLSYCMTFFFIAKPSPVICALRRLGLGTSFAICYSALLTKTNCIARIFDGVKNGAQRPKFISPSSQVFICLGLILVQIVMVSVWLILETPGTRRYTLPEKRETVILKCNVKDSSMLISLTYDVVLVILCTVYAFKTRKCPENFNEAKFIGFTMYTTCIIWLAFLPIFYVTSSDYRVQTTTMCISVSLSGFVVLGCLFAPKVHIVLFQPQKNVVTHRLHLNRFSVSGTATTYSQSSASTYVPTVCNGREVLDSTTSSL
- method_notes: Negative allosteric modulation of rat mGlu3 receptor assessed as calcium mobilization by cell based fluorescence assay
Here the recorded pIC50 is given for each entry.
Scale: pIC50 equals -log10([C]), with [C] in mol/L.

Solved cases below.
chemical_string | property_measured | meas_value
COc1cccc(OCc2cc3n(n2)[C@H](C)CN(c2ccc(F)cc2)C3=O)c1 | pIC50 | 5.89
COc1ccc(N2C[C@@H](C)n3nc(COc4ccc(Cl)cn4)cc3C2=O)cc1 | pIC50 | 6.36
C[C@@H]1CN(c2cccc(F)n2)C(=O)c2cc(COc3ccc(Cl)cn3)nn21 | pIC50 | 6.53

**Q:** Fill in: pIC50 of C[C@@H]1CN(c2ccc(F)cc2)C(=O)c2cc(COc3ccc(OC(F)(F)F)cc3)nn21 is ___
**A:** 5.39

---

- tested_target: UniProt:P31422
- method_notes: Negative allosteric modulation of rat mGlu3 receptor assessed as calcium mobilization by cell based fluorescence assay
- Type: functional
property_measured: IC50 (nM)
Number in nM, nothing else.

chemical_string | property_measured | unit_spec | meas_value
C[C@@H]1CN(c2ccc(F)nc2)C(=O)c2cc(COc3ccc(Cl)cn3)nn21 | IC50 | nM | 408
C[C@@H]1CN(c2cc(F)cc(F)c2)C(=O)c2cc(COc3ccc(Cl)cn3)nn21 | IC50 | nM | 420
Cc1cccc(OCc2cc3n(n2)[C@H](C)CN(c2ccc(F)cc2)C3=O)n1 | IC50 | nM | 2370
COc1cccc(N2C[C@@H](C)n3nc(COc4ccc(F)cn4)cc3C2=O)c1 | IC50 | nM | 198
C[C@@H]1CN(c2cncc(C#N)c2)C(=O)c2cc(COc3ccc(Cl)cn3)nn21 | IC50 | nM | 605

**Q:** Reported IC50 for Cc1ccccc1N1C[C@@H](C)n2nc(COc3ccc(Cl)cn3)cc2C1=O : what is it?
**A:** 571

**Q:** Then this compound: C[C@@H]1CN(c2ccc(F)cc2)C(=O)c2cc(COc3cccc(F)c3)nn21
**A:** 773

**Q:** Try this compound next: C[C@@H]1CN(c2cccnc2F)C(=O)c2cc(COc3ccc(Cl)cn3)nn21
**A:** 392

**Q:** Consider next the compound C[C@@H]1CN(c2cc(F)cc(C#N)c2)C(=O)c2cc(COc3ccc(Cl)cn3)nn21 in the same way.
**A:** 315

**Q:** What would you report for C[C@@H]1CN(c2c(F)cccc2F)C(=O)c2cc(COc3ccc(F)cn3)nn21 ?
**A:** 181

**Q:** Also check C[C@@H]1CN(c2ccc(F)cc2)C(=O)c2cc(COc3ccc(F)cc3F)nn21
**A:** 417

**Q:** For C[C@@H]1CN(c2ncccc2C#N)C(=O)c2cc(COc3ccc(Cl)cn3)nn21 then?
**A:** 677

**Q:** Same question for C[C@@H]1CN(c2ccc(F)cc2)C(=O)c2cc(COc3ccc(Cl)cc3)nn21 please.
**A:** 1170

**Q:** Same again, this time with COc1cccnc1OCc1cc2n(n1)[C@H](C)CN(c1ccc(F)cc1)C2=O
**A:** 6760

**Q:** And Cc1ccc(OCc2cc3n(n2)[C@H](C)CN(c2ccc(F)cc2)C3=O)cc1 ?
**A:** 1190

**Q:** Entry to check: C[C@@H]1CN(c2cc(F)ccc2C#N)C(=O)c2cc(COc3ccc(Cl)cn3)nn21
**A:** 529

**Q:** Then COc1ccccc1N1C[C@@H](C)n2nc(COc3ccc(F)cn3)cc2C1=O ?
**A:** 339

**Q:** Could you do the same for C[C@@H]1CN(c2ccc(F)cc2)C(=O)c2cc(COc3cc(C(F)(F)F)ccn3)nn21 , please?
**A:** 1670

**Q:** Also C[C@@H]1CN(c2ccccc2C#N)C(=O)c2cc(COc3ccc(Cl)cn3)nn21 , if possible.
**A:** 429

**Q:** Would you mind doing COc1ccc(N2C[C@@H](C)n3nc(COc4ccc(F)cn4)cc3C2=O)cc1 as well?
**A:** 320

**Q:** Try the compound C[C@@H]1CN(c2ccccc2F)C(=O)c2cc(COc3ccc(F)cn3)nn21
**A:** 162

**Q:** Follow-up item: C[C@@H]1CN(c2ccccc2Cl)C(=O)c2cc(COc3ccc(F)cn3)nn21
**A:** 141

**Q:** Now this one: COc1ccccc1OCc1cc2n(n1)[C@H](C)CN(c1ccc(F)cc1)C2=O
**A:** 2540

**Q:** And what about the compound C[C@@H]1CN(c2ccc(F)cc2)C(=O)c2cc(COc3cccc(Cl)c3)nn21 ?
**A:** 1620

**Q:** Note, next up: CCc1ccc(OCc2cc3n(n2)[C@H](C)CN(c2ccc(F)cc2)C3=O)cc1
**A:** 830
